The reported numbers originate from patent US20250346600A1.

# Tested on: HCT116 cells
# method.notes: HCT116 (MSI) 7 day viability, CellTiter Glo
# Format: cell-based
# measurement.parameters: 7 days, read-out: HCT116 (MSI) Viability 7 Day Abs AC50
measured.parameter: AC50

>  <compound>
C=CC(=O)N1CCc2nn(-c3ccc(C(C)C)cc3)c3c2C(C1)N(C(=O)c1ccc(Br)c2ncn(CC4CCO4)c12)CC3 (stereo not drawn)

>  <observed.measurement>
500 to 1000 nM

$$$$
>  <compound>
C=CC(=O)N1CC(F)Oc2nn(-c3ccc(C(C)C)cc3)c3c2C(C1)N(C(=O)c1ccc(Br)c2[nH]cnc12)CC3 (stereo not drawn) [Compound 54]

>  <observed.measurement>
> 1000 nM

$$$$
>  <compound>
C=CC(=O)N1CC(C)c2nn(-c3ccc(C(C)C)cc3)c3c2C(C1)N(C(=O)c1ccc(Br)c2[nH]cnc12)CC3 (stereo not drawn) [Compound 34]

>  <observed.measurement>
250 to 500 nM

$$$$

###

# assay.system: Full length WRN protein (aa 2-1432) (Homo sapiens (Human), UniProt Q14191)
# Sequence (Q14191 2-1432): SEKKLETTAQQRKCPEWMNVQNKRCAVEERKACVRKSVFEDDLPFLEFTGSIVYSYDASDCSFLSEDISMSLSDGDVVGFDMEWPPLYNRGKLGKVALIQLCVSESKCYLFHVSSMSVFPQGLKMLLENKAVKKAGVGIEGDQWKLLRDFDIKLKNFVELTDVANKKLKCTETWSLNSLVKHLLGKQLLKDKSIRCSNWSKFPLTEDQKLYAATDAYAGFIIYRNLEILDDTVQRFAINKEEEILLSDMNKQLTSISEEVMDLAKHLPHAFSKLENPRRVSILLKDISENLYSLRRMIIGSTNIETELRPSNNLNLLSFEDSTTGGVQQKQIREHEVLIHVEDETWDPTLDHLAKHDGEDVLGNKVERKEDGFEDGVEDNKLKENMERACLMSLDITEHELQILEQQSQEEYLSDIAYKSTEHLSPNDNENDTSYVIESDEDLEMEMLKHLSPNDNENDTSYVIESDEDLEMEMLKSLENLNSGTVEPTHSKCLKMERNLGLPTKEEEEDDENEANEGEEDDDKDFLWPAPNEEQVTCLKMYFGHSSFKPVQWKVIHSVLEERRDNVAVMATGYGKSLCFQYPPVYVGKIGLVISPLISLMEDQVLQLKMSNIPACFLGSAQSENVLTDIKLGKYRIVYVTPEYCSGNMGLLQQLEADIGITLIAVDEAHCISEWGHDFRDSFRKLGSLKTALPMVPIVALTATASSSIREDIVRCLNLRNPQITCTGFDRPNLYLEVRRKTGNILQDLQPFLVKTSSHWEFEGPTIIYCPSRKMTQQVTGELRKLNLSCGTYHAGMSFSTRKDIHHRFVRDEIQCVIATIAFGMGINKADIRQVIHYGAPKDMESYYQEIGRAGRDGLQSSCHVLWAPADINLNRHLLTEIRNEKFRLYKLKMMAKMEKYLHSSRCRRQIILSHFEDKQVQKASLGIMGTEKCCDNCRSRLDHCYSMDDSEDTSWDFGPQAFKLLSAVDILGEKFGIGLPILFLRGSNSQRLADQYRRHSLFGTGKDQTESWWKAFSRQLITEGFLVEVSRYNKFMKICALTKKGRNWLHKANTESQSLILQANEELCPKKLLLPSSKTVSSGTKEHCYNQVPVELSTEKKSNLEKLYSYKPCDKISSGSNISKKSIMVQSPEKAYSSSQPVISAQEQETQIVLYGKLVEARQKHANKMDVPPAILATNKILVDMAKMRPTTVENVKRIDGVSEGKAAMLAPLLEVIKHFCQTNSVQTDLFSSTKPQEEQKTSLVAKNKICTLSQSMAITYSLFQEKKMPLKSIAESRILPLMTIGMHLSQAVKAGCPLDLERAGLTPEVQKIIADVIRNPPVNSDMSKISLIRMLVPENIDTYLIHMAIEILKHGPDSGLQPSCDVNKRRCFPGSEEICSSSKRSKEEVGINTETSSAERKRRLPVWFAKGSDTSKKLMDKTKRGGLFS
# method.notes: WRN ATPase ADP-Glo biochemical assay, Assay Format A (10 μM ATP)
# measurement.parameters: 0.25 nM WRN, 100 nM C6.18 ssDNA, 30 min preincubation, read-out: ATPase ADPGlo AC50 (uM)- Assay Format A
# key: entry, value: AC50
measured.parameter: AC50

>  <molecule>
C=CC(=O)N1CCc2nn(-c3ccc(C(C)C)cc3O)c3c2C(C1)N(C(=O)c1cnc(Br)c2[nH]cnc12)CC3 (stereo not shown)

>  <measured.parameter>
AC50

>  <observed.measurement>
0.0015 to 0.005 µM

$$$$
>  <molecule>
C=CC(=O)N1CC(C)c2nn(-c3ccc(C4CCC4)cc3O)c3c2C(C1)N(C(=O)c1cnc(C(F)(F)F)cc1N)CC3 (stereo not shown) [Compound 130]

>  <measured.parameter>
AC50

>  <observed.measurement>
< 0.0015 µM

$$$$
>  <molecule>
C=CC(=O)N1CCc2nn(-c3ccc(C4CCC4)cc3O)c3c2C(C1)N(C(=O)c1cnc(Cl)cc1N)CC3 (stereo not shown)

>  <measured.parameter>
AC50

>  <observed.measurement>
< 0.0015 µM

$$$$
>  <molecule>
C=CC(=O)N1CCc2nn(-c3ccc(C(C)C)cc3)c3c2C(C1)N(C(=O)c1ccc(Br)cc1C(N)=O)CC3 (stereo not shown)

>  <measured.parameter>
AC50

>  <observed.measurement>
0.005 to 0.015 µM

$$$$
>  <molecule>
C=CC(=O)N1CCc2nn(-c3ccc(C(C)C)cc3)c3c2C(C1)N(C(=O)c1ccc(Br)c2c1CCO2)CC3 (stereo not shown)

>  <measured.parameter>
AC50

>  <observed.measurement>
< 0.0015 µM

$$$$
>  <molecule>
C=CC(=O)N1CCc2nn(-c3ccc(C4CC4)cc3)c3c2C(C1)N(C(=O)c1ccc(OCC(F)(F)F)nc1)CC3 (stereo not shown)

>  <measured.parameter>
AC50

>  <observed.measurement>
> 0.055 µM

$$$$
>  <molecule>
C=CC(=O)N1CCc2nn(-c3ccc(C4CC4)c(F)c3OC)c3c2C(C1)N(C(=O)c1cnc(C(F)(F)F)c(O)c1)CC3 (stereo not shown)

>  <measured.parameter>
AC50

>  <observed.measurement>
0.0015 to 0.005 µM

$$$$

###

# assay.system: Full length WRN protein (aa 2-1432) (Homo sapiens (Human), UniProt Q14191)
# method.notes: WRN ATPase ADP-Glo biochemical assay, Assay Format A (10 μM ATP)
# measurement.parameters: 0.25 nM WRN, 100 nM C6.18 ssDNA, 30 min preincubation, read-out: ATPase ADPGlo AC50 (uM)- Assay Format A

>  <compound>
C=CC(=O)N1CCc2nn(-c3ccc(C4CC4)cc3)c3c2C(C1)N(C(=O)c1cnc2c(C)nn(C)c2c1)CC3 (stereo not shown)

>  <AC50>
0.005 to 0.015 µM

$$$$
>  <compound>
C=CC(=O)N1CCc2nn(-c3ccc(C4CC4)cc3O)c3c2C(C1)N(C(=O)c1cnc(OC(F)(F)F)c(F)c1N)CC3 (stereo not shown)

>  <AC50>
0.0015 to 0.005 µM

$$$$
>  <compound>
C=CC(=O)N1CCc2nn(-c3ccc(C4CC4)cc3)c3c2C(C1)N(C(=O)c1ccc(Br)nc1C)CC3 (stereo not shown)

>  <AC50>
0.005 to 0.015 µM

$$$$
>  <compound>
C=CC(=O)N1CCc2nn(-c3ccc(C(C)C)cc3O)c3c2C(C1)N(C(=O)c1cnc(C(F)(F)F)c(O)c1)CC3 (stereo not shown)

>  <AC50>
< 0.0015 µM

$$$$
>  <compound>
C=CC(=O)N1CCc2nn(-c3cc(F)c(C4CC4)c(F)c3O)c3c2C(C1)N(C(=O)c1cnc(C(F)(F)F)cc1N)CC3 (stereo not shown)

>  <AC50>
0.0015 to 0.005 µM

$$$$
>  <compound>
C=CC(=O)N1CCc2nn(-c3ccc(C(C)C)cc3)c3c2C(C1)N(C(=O)c1ccc(Br)c2[nH]c(N)nc12)CC3 (stereo not shown)

>  <AC50>
< 0.0015 µM

$$$$
>  <compound>
C=CC(=O)N1CCc2nn(-c3ccc(C4CCC4)cc3O)c3c2C(C1)N(C(=O)c1ccc(SC(F)(F)F)nc1)CC3 (stereo not shown)

>  <AC50>
< 0.0015 µM

$$$$

###

# assay.system: Full length WRN protein (aa 2-1432) (Homo sapiens (Human), UniProt Q14191)
# method.notes: WRN ATPase ADP-Glo biochemical assay, Assay Format B (100 μM ATP)
# measurement.parameters: 0.25 nM WRN, 100 nM C6.18 ssDNA, 60 min preincubation, read-out: ATPase ADPGlo AC50 (uM)- Assay Format B
# key: entry, value: AC50
measured.parameter: AC50

>  <compound>
C=CC(=O)N1CCc2nn(-c3ccc(C4CCC4)cc3O)c3c2C(C1)N(C(=O)c1cnc(C(F)(F)F)c(O)c1)CC3 (stereo not shown)

>  <observed.measurement>
0.005 to 0.015 µM

$$$$
>  <compound>
C=CC(=O)N1CC(OC)c2nn(-c3ccc(C4CCC4)cc3O)c3c2C(C1)N(C(=O)c1cnc(C(F)(F)F)c(O)c1)CC3 (stereo not shown)

>  <observed.measurement>
0.0015 to 0.005 µM

$$$$
>  <compound>
C=CC(=O)N1CCc2nn(-c3ccc(C4CCC4)cc3O)c3c2C(C1)N(C(=O)c1cnc(Cl)cc1N)CC3 (stereo not shown)

>  <observed.measurement>
0.0015 to 0.005 µM

$$$$
>  <compound>
C=CC(=O)N1CC(C)c2nn(-c3ccc(C(C)C)cc3O)c3c2C(C1)N(C(=O)c1ccc(Br)c2[nH]cnc12)CC3 (stereo not shown) [Compound 32]

>  <observed.measurement>
0.005 to 0.015 µM

$$$$
>  <compound>
C=CC(=O)N1CCc2nn(-c3ccc(C4CCC4)c(F)c3N)c3c2C(C1)N(C(=O)c1cnc(C(F)(F)F)c(O)c1)CC3 (stereo not shown)

>  <observed.measurement>
0.005 to 0.015 µM

$$$$
>  <compound>
C=CC(=O)N1CCc2nn(-c3ccc(C4CC4)cc3O)c3c2C(C1)N(C(=O)c1c(N)cc(Br)c2nc[nH]c12)CC3 (stereo not shown)

>  <observed.measurement>
0.0015 to 0.005 µM

$$$$
>  <compound>
C=CC(=O)N1CCc2nn(C34CC(C5CCCC5)(C3)C4)c3c2C(C1)N(C(=O)c1cnc(C(F)(F)F)cc1N)CC3 (stereo not shown)

>  <observed.measurement>
0.005 to 0.015 µM

$$$$
>  <compound>
C=CC(=O)N1CCc2nn(-c3ccc(C4CC4)cc3O)c3c2C(C1)N(C(=O)c1ccc(C(F)(F)F)c(F)c1N)CC3 (stereo not shown)

>  <observed.measurement>
0.015 to 0.055 µM

$$$$
>  <compound>
C=CC(=O)N1CCc2nn(-c3ccc(C4CC4)c(F)c3O)c3c2C(C1)N(C(=O)c1cnc(OC(F)(F)F)c(F)c1N)CC3 (stereo not shown)

>  <observed.measurement>
0.015 to 0.055 µM

$$$$
>  <compound>
C=CC(=O)N1CCc2nn(-c3ccc(C4CCC4)cc3O)c3c2C(C1)N(C(=O)c1ccc(Br)c2nc(C(F)F)[nH]c12)CC3 (stereo not shown)

>  <observed.measurement>
0.005 to 0.015 µM

$$$$
>  <compound>
C=CC(=O)N1CCc2nn(-c3ccc(C4CC4)cc3O)c3c2C(C1)N(C(=O)c1ccc(C(F)(F)F)cc1N)CC3 (stereo not shown)

>  <observed.measurement>
0.005 to 0.015 µM

$$$$
>  <compound>
C=CC(=O)N1CCc2nn(-c3ccc(C45CC(C4)C5)c(F)c3O)c3c2C(C1)N(C(=O)c1cnc(C(F)(F)F)c(O)c1)CC3 (stereo not shown)

>  <observed.measurement>
0.015 to 0.055 µM

$$$$
>  <compound>
C=CC(=O)N1CCc2nn(-c3ccc(C4CCC4)cc3O)c3c2C(C1)N(C(=O)c1ccc(Br)c2[nH]c(CO)nc12)CC3 (stereo not shown)

>  <observed.measurement>
0.0015 to 0.005 µM

$$$$
